Measured metric: logP
Form field (numeric): enter value without unit.

Inquiry: Please look up its logP: OCC1OC(n2cnc3c(NCc4ccco4)ncnc32)C(O)C1O (stereo unspecified)
Reply text: 0.52

Inquiry: Given "O=C1NC(=O)C(c2ccccc2)(c2ccccc2)N1S(=O)(=O)c1ccc(O)cc1" , state its recorded logP.
Reply text: 3.58

Inquiry: Would you kindly share the measured logP for "OCc1cnc(O)nc1O" ?
Reply text: -1.94

Inquiry: Entry "O=C(NS(=O)(=O)c1cnccc1NC1CCCCCC1)N1CCCCC1" has what logP?
Reply text: 4.14

Inquiry: Please report the recorded logP for "O=C1C=C(N2CCCCCC2)CN1c1ccc(Cl)cc1" .
Reply text: 3.4

Inquiry: Name the recorded logP for "COCCCNC(=O)Cn1cnc([N+](=O)[O-])n1" .
Reply text: -0.49
